Source: PubChem BioAssay (NCATS)

Experiment: P-glycoprotein substrates identified in KB-8-5-11 adenocarcinoma cell line, qHTS therapeutic library screen (AID 1346987); note: nearly all actives have a fitted effect of over 65% in size
Details: KB-8-5-11 (P-gp overexpressing) viability, CellTiter-Glo, 72 h; series mostly up to 44.5 µM
Inconclusive results are not listed. The source made the active and inactive calls. Calls come from the whole dose curve; as a rule, active = well fitted inhibition curve with a large enough effect; inconclusive = small, poorly fitted or top-dose-only effect; inactive = flat fitted curve, though single readings scatter.
Classes used: Yes = active, No = inactive

# COMPOUND, CATEGORY
records = [
    ("CC(C)(C)NCC(O)CSc1nc(-c2ccc(C(N)=O)s2)cs1 (configuration not stated)", "No"),
    ("CCN1\\C(=C/C=C/C=C/c2sc3ccccc3[n+]2CC)Sc2ccccc21", "Yes"),
    ("O=P(O)(O)OC[C@H]1O[C@](O)(COP(=O)(O)O)[C@@H](O)[C@@H]1O", "No"),
    ("CCCc1ccc(C(=O)O)cc1", "No"),
    ("C=C1c2c(Cl)ccc(O)c2C(O)=C2C(=O)[C@]3(O)C(O)=C(C(N)=O)C(=O)[C@@H](N(C)C)[C@@H]3[C@@H](O)[C@H]12", "No"),
    ("COc1ccc2cc([C@H](C)CO)ccc2c1", "No"),
    ("CNCC(=O)N[C@@H](CCCN=C(N)N)C(=O)N[C@H](C(=O)N[C@@H](Cc1ccc(O)cc1)C(=O)N[C@H](C(=O)N[C@@H](Cc1cnc[nH]1)C(=O)N1CCC[C@H]1C(=O)N[C@@H](C)C(=O)O)C(C)C)C(C)C", "No"),
    ("Cc1ncc[nH]1", "No"),
    ("CO/N=C(\\C(=O)N[C@@H]1C(=O)N2C(C(=O)[O-])=C(C[n+]3ccc(N)n3CCO)CS[C@H]12)c1csc(N)n1", "No"),
    ("O.O.O.O.O.O.O.O=S(=O)([O-])[O-].[Co+2]", "No"),
    ("C[C@]12CC[C@@H]3c4ccc(O)cc4CC[C@H]3[C@@H]1CC[C@@H]2OP(=O)(O)O", "Yes"),
    ("NC(Cc1ccccc1)C(=O)O (configuration not stated)", "No"),
]

====

System: ECU
Assay: qHTS profiling for inhibitors of Plasmodium falciparum proliferation (AID 504749); note: nearly all actives have a fitted effect of over 60% in size
Conditions: P. falciparum in erythrocytes, SYBR Green DNA, 72 h; series mostly up to 28.7 µM
Records with an inconclusive call do not appear. Calls of active or inactive are those of the source. Calls come from the whole dose curve; as a rule, active = well fitted inhibition curve with a large enough effect; inconclusive = small, poorly fitted or top-dose-only effect; inactive = flat fitted curve, though single readings scatter.
Outcomes: active, inactive

# COMPOUND, CATEGORY
data = [
    ("Cc1cc(C(=O)NCCc2ccc(S(=O)(=O)NC(=O)NN3CCCCCC3)cc2)no1", "inactive"),
    ("Nc1ncnc2c1ncn2[C@H]1CC[C@@H](CO)O1", "inactive"),
    ("O=C(O)COc1ccccc1/C=N/NC(=O)c1ccncc1", "inactive"),
    ("O=S(=O)(O)CCCS(=O)(=O)O", "inactive"),
    ("C=CC(=O)O", "inactive"),
    ("CC(C)Cc1ccc([C@@H](C)C(=O)NS(C)(=O)=O)cc1", "inactive"),
    ("NCC[C@H](O)C(=O)N[C@@H]1C[C@H](N)[C@@H](O[C@H]2O[C@H](CN)[C@@H](O)[C@H](O)[C@H]2O)[C@H](O)[C@H]1O[C@H]1O[C@H](CO)[C@@H](O)[C@H](N)[C@H]1O", "inactive"),
    ("CCN(CC)C(=O)c1cccnc1", "inactive"),
    ("CC(C)(C)CC(C)(C)c1cc(Cc2cc(C(C)(C)CC(C)(C)C)cc(-n3nc4ccccc4n3)c2O)c(O)c(-n2nc3ccccc3n2)c1", "inactive"),
    ("CCOC(C)OCC", "inactive"),
    ("ClC(Cl)Cl", "inactive"),
    ("CC1=CC(=C(c2ccc(N)cc2)c2ccc(N)cc2)C=CC1=N", "active"),
    ("CCCCCCCCCCCCOCCCN", "inactive"),
    ("O=C(CCCN1CCN2CCCC2C1)c1ccc(F)cc1 (centres undefined)", "inactive"),
    ("CC(C)CCC[C@@H](C)[C@H]1CC[C@H]2[C@@H]3CC[C@@H]4C[C@H](O)CC[C@]4(C)[C@H]3CC[C@]12C", "inactive"),
    ("CC(C)CCC[C@@H](C)[C@H]1CC[C@H]2[C@@H]3CC=C4C[C@@H](O)CC[C@]4(C)[C@H]3CC[C@]12C", "inactive"),
    ("CC12CCC(C[N+](C)(CCC[N+](C)(C)C)C1)C2(C)C (centres undefined)", "inactive"),
    ("Oc1cc(O)cc(O)c1", "inactive"),
    ("CCCCC[C@H](O)/C=C/[C@H]1[C@H](O)CC(=O)[C@@H]1C/C=C\\CCCC(=O)O", "inactive"),
    ("C=CCOc1ccc(CC(=O)O)cc1Cl", "inactive"),
    ("CCCCCCCCCCCC(=O)N(CCO)CCO", "inactive"),
    ("C[C@H](O)CN(C)C", "inactive"),
    ("O=C(OCc1ccccc1)c1cccnc1", "inactive"),
    ("CNC(=O)C[C@@H](N)C(=O)N[C@@H](C(=O)N[C@@H]1C(=O)N2[C@@H]1SC(C)(C)[C@@H]2C(=O)O)c1ccc(O)cc1", "inactive"),
    ("O=C1[O][Bi][O]c2ccccc21", "inactive"),
    ("NC(=S)NS(=O)(=O)c1ccc(N)cc1", "inactive"),
    ("CCCCCc1ccc(C)cc1O", "inactive"),
    ("CCOC(=S)SSC(=S)OCC", "inactive"),
    ("CSCCC(N)C(=O)O (centres undefined)", "inactive"),
]
